- measurement_notes: AUC (0 to last) in wild type FVB mouse brain at 100 mg/kg, po
- Format: ADME, organism-based
- Set-up: time 0 - last, dose 100 mg/kg, route oral
assay_metric: AUC(0-t) (ng·h/mL)
Give the value, in units of ng·h/mL, as a plain number.

Recorded result, COc1cc2c(cc1OC)CN(CCc1ccc(NC(=O)c3cccc4c(=O)c5cccc(OC)c5[nH]c34)cc1)CC2 , AUC(0-t): 64800

====

- measurement_notes: Tmax in wild type FVB mouse brain at 100 mg/kg, po
- Format: ADME, organism-based
- Parameters: dose 100 mg/kg, route oral
assay_metric: Tmax (h)
Give the value, in units of h, as a plain number.

Recorded result, COc1cc2c(cc1OC)CN(CCc1ccc(NC(=O)c3cccc4c(=O)c5cccc(OC)c5[nH]c34)cc1)CC2 , Tmax: 8
